- MEASUREMENT TARGET: human aquaporin 9 (Homo sapiens, UniProt O43315)
- TEST METHOD NOTES: Calcein quenching fluostar assay
- TEST SETTINGS: inhibition of human aquaporin 9; Human AQP9 cell line, tetracyclin-induced; 25° C.
pIC50: −log10 of the molar value.
Each entry below lists one item and its recorded pIC50 value.
READOUT NAME: pIC50

SMI: CCn1c(SCC(=O)Nc2nnc(-c3ccc(OC)cc3)s2)nnc1-c1cccc(C)c1
RESULT: 6.76

SMI: CCn1c(SCC(=O)Nc2nnc(-c3ccc(S(C)(=O)=O)cc3)s2)nnc1-c1ccncc1
RESULT: 6.82

SMI: COc1ccccc1-c1nnc(NC(=O)CSc2nnc(-c3ccc(F)cc3)n2C)s1
RESULT: 5.32

SMI: Cn1c(SCC(=O)Nc2nnc(-c3ccc(F)cc3)s2)nnc1-c1ccncc1
RESULT: 6.95

SMI: CCn1c(SCC(=O)Nc2nnc(-c3ccc(F)cc3)s2)nnc1-c1cccc(C)c1
RESULT: 6.43

###

Each entry below lists one item and its recorded pIC50 value.
- MEASUREMENT TARGET: human aquaporin 9 (Homo sapiens, UniProt O43315)
- TEST METHOD NOTES: Calcein quenching fluostar assay
- TEST SETTINGS: inhibition of human aquaporin 9; Human AQP9 cell line, tetracyclin-induced; 25° C.
pIC50: −log10 of the molar value.

SMI: CCn1c(SCC(=O)Nc2nnc(-c3ccc(CS(C)(=O)=O)cc3)s2)nnc1-c1ccc(F)cc1
MEASUREMENT TARGET: human aquaporin 9 (Homo sapiens, UniProt O43315)
pIC50: 6.05
--
SMI: CCn1c(SCC(=O)Nc2nnc(-c3ccc(OC)cc3)s2)nnc1-c1ccc(OC)cc1
MEASUREMENT TARGET: human aquaporin 9 (Homo sapiens, UniProt O43315)
pIC50: 6.57
--
SMI: COC(=O)CCn1c(SCC(=O)Nc2nnc(-c3ccc(OC)cc3)s2)nnc1-c1ccccc1
MEASUREMENT TARGET: human aquaporin 9 (Homo sapiens, UniProt O43315)
pIC50: 6.93
--
SMI: CCn1c(SCC(=O)Nc2nnc(-c3ccc(F)cc3)s2)nnc1-c1ccccn1
MEASUREMENT TARGET: human aquaporin 9 (Homo sapiens, UniProt O43315)
pIC50: 6.37
--
SMI: CCn1c(SCC(=O)Nc2nnc(-c3ccc(OC)cc3)s2)nnc1-c1cccc(F)c1
MEASUREMENT TARGET: human aquaporin 9 (Homo sapiens, UniProt O43315)
pIC50: 6.87
--
SMI: CCn1c(SCC(=O)Nc2nnc(-c3ccc(OC)cc3)s2)nnc1-c1cccnc1
MEASUREMENT TARGET: human aquaporin 9 (Homo sapiens, UniProt O43315)
pIC50: 7.25
--
SMI: COc1ccc(-c2nnc(NC(=O)CSc3nnc(-c4ccccc4)n3CCO)s2)cc1
MEASUREMENT TARGET: human aquaporin 9 (Homo sapiens, UniProt O43315)
pIC50: 7.23
--
SMI: COc1ccc(-c2nnc(NC(=O)CSc3nnc(-c4ccccc4)n3CC(N)=O)s2)cc1
MEASUREMENT TARGET: human aquaporin 9 (Homo sapiens, UniProt O43315)
pIC50: 6.70
--
SMI: CCn1c(SCC(=O)Nc2nnc(-c3ccc(F)cc3)s2)nnc1-c1ccc(OC)cc1
MEASUREMENT TARGET: human aquaporin 9 (Homo sapiens, UniProt O43315)
pIC50: 6.32
--
SMI: Cn1c(SCC(=O)Nc2nnc(-c3ccccc3F)s2)nnc1-c1ccc(F)cc1
MEASUREMENT TARGET: human aquaporin 9 (Homo sapiens, UniProt O43315)
pIC50: 6.80
--
SMI: CCn1c(SCC(=O)Nc2nnc(-c3ccc(OC)cc3)s2)nnc1-c1ccccc1F
MEASUREMENT TARGET: human aquaporin 9 (Homo sapiens, UniProt O43315)
pIC50: 6.86
--
SMI: COc1ccc(-c2nnc(NC(=O)CSc3nnc(-c4ccc(F)cc4)n3C3CC3)s2)cc1
MEASUREMENT TARGET: human aquaporin 9 (Homo sapiens, UniProt O43315)
pIC50: 6.01
--
SMI: CCn1c(SCC(=O)Nc2nnc(-c3ccc(OCCOC)cc3)s2)nnc1-c1ccc(F)cc1
MEASUREMENT TARGET: human aquaporin 9 (Homo sapiens, UniProt O43315)
pIC50: 7.09
--
SMI: CCCn1c(SCC(=O)Nc2nnc(-c3ccc(OC)cc3)s2)nnc1-c1ccc(F)cc1
MEASUREMENT TARGET: human aquaporin 9 (Homo sapiens, UniProt O43315)
pIC50: 6.38
--
SMI: CCn1c(SCC(=O)Nc2nnc(-c3ccc(OC)c(F)c3)s2)nnc1-c1ccc(F)cc1
MEASUREMENT TARGET: human aquaporin 9 (Homo sapiens, UniProt O43315)
pIC50: 6.74
--
SMI: CCn1c(SCC(=O)Nc2nnc(-c3cccc(OC)c3)s2)nnc1-c1ccc(F)cc1
MEASUREMENT TARGET: human aquaporin 9 (Homo sapiens, UniProt O43315)
pIC50: 5.32
--
SMI: CCn1c(SCC(=O)Nc2nnc(-c3ccc(SC)cc3)s2)nnc1-c1ccc(F)cc1
MEASUREMENT TARGET: human aquaporin 9 (Homo sapiens, UniProt O43315)
pIC50: 6.17

###

- MEASUREMENT TARGET: human aquaporin 9 (Homo sapiens, UniProt O43315)
- TEST METHOD NOTES: Calcein quenching fluostar assay
- TEST SETTINGS: inhibition of human aquaporin 9; Human AQP9 cell line, tetracyclin-induced; 25° C.
Param label: returns T when IC50 < 300 nM, returns F otherwise, including exact equality.

SMI: CCn1c(SCC(=O)Nc2nnc(-c3ccc(F)cc3)s2)nnc1-c1ccccc1F
GROUP: F
//
SMI: O=C(CSc1nnc(-c2ccc(F)cc2)n1C1CC1)Nc1nnc(-c2ccc(F)cc2)s1
GROUP: T
//
SMI: Cn1c(SCC(=O)Nc2nnc(-c3ccc(F)cc3)s2)nnc1-c1ccc(F)cc1
GROUP: F
//
SMI: CCn1c(SCC(=O)Nc2nnc(-c3ccc(F)cc3)s2)nnc1-c1ccc(Cl)cc1
GROUP: T
//
SMI: CCn1c(SCC(=O)Nc2nnc(-c3ccc(S(C)(=O)=O)cc3)s2)nnc1-c1ccc(F)cc1
GROUP: T
//
SMI: CCn1c(SCC(=O)Nc2nnc(-c3ccc(F)cc3)s2)nnc1-c1cccc(OC)c1
GROUP: F
//
SMI: COc1ccc(-c2nnc(NC(=O)CSc3nnc(-c4ccccc4)n3CCN)s2)cc1
GROUP: F
//
SMI: Cn1c(SCC(=O)Nc2nnc(-c3ccccc3F)s2)nnc1-c1ccncc1
GROUP: T
//
SMI: CCn1c(SCC(=O)Nc2nnc(-c3ccc(OC)cc3)s2)nnc1-c1ccccc1Cl
GROUP: T
//
SMI: COc1ccc(-c2nnc(NC(=O)CSc3nnc(-c4ccc(F)cc4)n3C)s2)cc1
GROUP: T
//
SMI: CCn1c(SCC(=O)Nc2nnc(-c3ccc(OC)cc3)s2)nnc1-c1ccc(C)cc1
GROUP: T
//
SMI: CCn1c(SCC(=O)Nc2nnc(-c3ccc(O)cc3)s2)nnc1-c1ccc(F)cc1
GROUP: T
//
SMI: COc1ccc(-c2nnc(NC(=O)CSc3nnc(-c4ccccc4)n3CCCO)s2)cc1
GROUP: T
//
SMI: CCn1c(SCC(=O)Nc2nnc(-c3ccc(OC)cc3)s2)nnc1-c1ccc(Cl)cc1
GROUP: F
//
SMI: CCn1c(SCC(=O)Nc2nnc(-c3ccc(F)cc3)s2)nnc1-c1ccncc1
GROUP: T
//
SMI: COc1ccc(-c2nnc(NC(=O)CSc3nnc(-c4ccncc4)n3C)s2)cc1
GROUP: T

###

- MEASUREMENT TARGET: UniProt:O43315
- Sequence (O43315 1-295): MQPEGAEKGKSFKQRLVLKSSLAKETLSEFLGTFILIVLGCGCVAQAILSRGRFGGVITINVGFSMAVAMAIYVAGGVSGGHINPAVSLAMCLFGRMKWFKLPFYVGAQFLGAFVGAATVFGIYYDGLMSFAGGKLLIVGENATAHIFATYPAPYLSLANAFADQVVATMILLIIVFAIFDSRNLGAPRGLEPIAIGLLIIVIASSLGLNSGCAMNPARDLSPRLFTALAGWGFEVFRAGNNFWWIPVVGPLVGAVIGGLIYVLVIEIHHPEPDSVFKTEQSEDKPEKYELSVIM
- TEST METHOD NOTES: Calcein quenching fluostar assay
- TEST SETTINGS: inhibition of human aquaporin 9; Human AQP9 cell line, tetracyclin-induced; 25° C.
Param label: returns label 1 when IC50 < 100 nM, returns label 0 otherwise, including exact equality.

COMPOUND: Cn1c(SCC(=O)Nc2nnc(-c3ccccc3F)s2)nnc1-c1ccc(Cl)cc1 [Example 7]
GROUP: label 0
//
COMPOUND: CCn1c(SCC(=O)Nc2nnc(-c3ccc(C#N)cc3)s2)nnc1-c1ccc(F)cc1 [Example 47]
GROUP: label 0
//
COMPOUND: CCn1c(SCC(=O)Nc2nnc(-c3ccc(F)c(F)c3)s2)nnc1-c1ccc(F)cc1 [Example 46]
GROUP: label 0
//
COMPOUND: CCn1c(SCC(=O)Nc2nnc(-c3ccc(S(C)(=O)=O)cc3)s2)nnc1-c1cccnc1 [Example 57]
GROUP: label 0
//
COMPOUND: CCn1c(SCC(=O)Nc2nnc(-c3ccc(OC)cc3)s2)nnc1-c1ccncc1 [Example 21]
GROUP: label 1
//
COMPOUND: CCn1c(SCC(=O)Nc2nnc(-c3ccc(OC)cc3)s2)nnc1-c1ccccc1C [Example 13]
GROUP: label 0
//
COMPOUND: CCn1c(SCC(=O)Nc2nnc(-c3ccc(F)cc3)s2)nnc1-c1ccc(C)cc1 [Example 24]
GROUP: label 0
//
COMPOUND: CCn1c(SCC(=O)Nc2nnc(-c3ccc(OC)cc3)s2)nnc1-c1cccc(OC)c1 [Example 22]
GROUP: label 0
//
COMPOUND: Cn1c(SCC(=O)Nc2nnc(-c3cccc(F)c3)s2)nnc1-c1ccc(F)cc1 [Example 3]
GROUP: label 0
//
COMPOUND: CCn1c(SCC(=O)Nc2nnc(-c3ccc(F)cc3)s2)nnc1-c1cccc(F)c1 [Example 28]
GROUP: label 0
//
COMPOUND: CCn1c(SCC(=O)Nc2nnc(-c3ccc(OC)cc3)s2)nnc1-c1cccc(Cl)c1 [Example 39]
GROUP: label 0
//
COMPOUND: CCn1c(SCC(=O)Nc2nnc(-c3ccccc3F)s2)nnc1-c1ccc(F)cc1 [Example 38]
GROUP: label 0
//
COMPOUND: CCn1c(SCC(=O)Nc2nnc(-c3ccc(F)cc3)s2)nnc1-c1cccnc1 [Example 30]
GROUP: label 0
//
COMPOUND: CCn1c(SCC(=O)Nc2nnc(-c3ccc(OS(C)(=O)=O)cc3)s2)nnc1-c1ccc(F)cc1 [Example 36]
GROUP: label 0
//
COMPOUND: CCn1c(SCC(=O)Nc2nnc(-c3ccc(OC)cc3)s2)nnc1-c1ccc(F)cc1 [Example 11]
GROUP: label 1
//
COMPOUND: CCn1c(SCC(=O)Nc2nnc(-c3ccc(OC)cc3)s2)nnc1-c1ccccn1 [Example 41]
GROUP: label 0
//
COMPOUND: CCn1c(SCC(=O)Nc2nnc(-c3ccc(F)cc3)s2)nnc1-c1ccc(F)cc1 [Example 12]
GROUP: label 1

Origin of the recorded values: patent US10011597B2
